tgt: T1, human VEGF (hVEGF) (human, UniProt P15692 181-395)
T1 construct: also called VEGF-A
T1 sequence: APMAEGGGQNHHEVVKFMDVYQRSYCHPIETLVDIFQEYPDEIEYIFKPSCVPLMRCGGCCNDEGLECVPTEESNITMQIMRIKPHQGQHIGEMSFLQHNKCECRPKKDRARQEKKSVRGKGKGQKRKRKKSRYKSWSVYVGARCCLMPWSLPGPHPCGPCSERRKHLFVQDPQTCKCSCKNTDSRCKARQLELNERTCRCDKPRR
measurement-notes: SPR single-cycle
// values below are reported koff
Quick reminder: number only, in s⁻¹, skip the unit.

>  <binder>
G6.31 LC-T97N (Fab, V domains shown, Fab) VH: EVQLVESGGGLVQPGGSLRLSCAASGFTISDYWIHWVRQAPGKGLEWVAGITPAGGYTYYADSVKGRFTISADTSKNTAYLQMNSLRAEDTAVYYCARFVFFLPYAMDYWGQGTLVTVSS VL: DIQMTQSPSSLSASVGDRVTITCRASQDVSTAVAWYQQKPGKAPKLLIYSASFLYSGVPSRFSGSGSGTDFTLTISSLQPEDFATYYCQQGYGNPFNFGQGTKVEIK

>  <quantity-name>
koff

>  <reported-result>
0.000802

$$$$
>  <binder>
G6.31 LC-Y36G (Fab, V domains shown, Fab) VH: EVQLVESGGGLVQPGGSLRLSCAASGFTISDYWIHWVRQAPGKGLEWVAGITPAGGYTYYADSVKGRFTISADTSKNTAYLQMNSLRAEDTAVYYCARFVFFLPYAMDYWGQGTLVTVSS VL: DIQMTQSPSSLSASVGDRVTITCRASQDVSTAVAWGQQKPGKAPKLLIYSASFLYSGVPSRFSGSGSGTDFTLTISSLQPEDFATYYCQQGYGNPFTFGQGTKVEIK

>  <quantity-name>
koff

>  <reported-result>
0.000558

$$$$
>  <binder>
G6.31 HC-N82aR (Fab, name in Kabat numbering, V domains shown, Fab) VH: EVQLVESGGGLVQPGGSLRLSCAASGFTISDYWIHWVRQAPGKGLEWVAGITPAGGYTYYADSVKGRFTISADTSKNTAYLQMRSLRAEDTAVYYCARFVFFLPYAMDYWGQGTLVTVSS VL: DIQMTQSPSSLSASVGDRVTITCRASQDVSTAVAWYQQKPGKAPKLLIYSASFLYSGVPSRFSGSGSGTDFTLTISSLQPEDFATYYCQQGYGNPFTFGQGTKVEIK

>  <quantity-name>
koff

>  <reported-result>
0.000322

$$$$
>  <binder>
G6.31 LC-S50M (Fab, V domains shown, Fab) VH: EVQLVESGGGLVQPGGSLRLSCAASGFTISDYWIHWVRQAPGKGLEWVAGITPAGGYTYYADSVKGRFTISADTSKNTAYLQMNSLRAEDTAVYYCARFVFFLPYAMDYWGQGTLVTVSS VL: DIQMTQSPSSLSASVGDRVTITCRASQDVSTAVAWYQQKPGKAPKLLIYMASFLYSGVPSRFSGSGSGTDFTLTISSLQPEDFATYYCQQGYGNPFTFGQGTKVEIK

>  <quantity-name>
koff

>  <reported-result>
0.000611

$$$$

Turning to the following binder.
Incoming: Param item = G6.31 HC-Y58R (Fab, name in Kabat numbering, V domains shown, Fab) VH: EVQLVESGGGLVQPGGSLRLSCAASGFTISDYWIHWVRQAPGKGLEWVAGITPAGGYTRYADSVKGRFTISADTSKNTAYLQMNSLRAEDTAVYYCARFVFFLPYAMDYWGQGTLVTVSS VL: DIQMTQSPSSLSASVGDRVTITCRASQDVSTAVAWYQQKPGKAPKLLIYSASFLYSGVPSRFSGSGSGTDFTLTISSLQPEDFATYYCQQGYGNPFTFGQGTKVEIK ; retrieve measured koff.
Outgoing: 0.000255
